target: 5-hydroxytryptamine receptor 1A (Rattus norvegicus); experiment: Binding affinity towards serotonin 5-HT1A receptor was determined in rat hippocampus using [3H]8-OH-DPAT as ligand; type: tissue-based
Sequence (P19327 whole entry): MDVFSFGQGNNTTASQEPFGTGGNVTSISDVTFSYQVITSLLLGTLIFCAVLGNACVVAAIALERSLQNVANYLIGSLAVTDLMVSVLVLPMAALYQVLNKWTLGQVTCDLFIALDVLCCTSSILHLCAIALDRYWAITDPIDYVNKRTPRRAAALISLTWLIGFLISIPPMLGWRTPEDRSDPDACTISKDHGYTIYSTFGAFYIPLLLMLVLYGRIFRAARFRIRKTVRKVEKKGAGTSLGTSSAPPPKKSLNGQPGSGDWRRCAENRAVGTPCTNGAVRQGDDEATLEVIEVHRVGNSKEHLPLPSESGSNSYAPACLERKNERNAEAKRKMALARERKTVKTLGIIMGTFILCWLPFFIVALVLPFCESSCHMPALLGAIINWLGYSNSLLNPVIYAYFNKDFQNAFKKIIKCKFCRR
Answer each item with its documented pIC50.
Answers are plain numbers, as −log10 of the molar value.

{"Compound": "CC1(C)SCN(CCCCN2CCN(c3nsc4ccccc34)CC2)C1=O", "Assay Readout": "pIC50", "Experimental Result": 8.10}

For every item in the list below, what is its measured pIC50?
1. Cc1cccc(N2CCN(CCCCN3C(=O)C(C)(C)SC3(C)C)CC2)c1
2. CC1SC2(CCCC2)C(=O)N1CCCCN1CCN(c2csc3cc(Cl)ccc23)CC1 (stereo not given)
3. O=C1N(CCCCN2CCN(c3csc4ccccc34)CC2)CSC12CCCC2

1. 7.42
2. 6.11
3. 8.70

Origin of the recorded values: ChEMBL document CHEMBL1129432
